The reported numbers originate from ChEMBL document CHEMBL1126897.

experimental target: UniProtKB P00533
method description: Inhibitory concentration against EGF receptor by polyGAT phosphorylation
pIC50: −log10 of the molar value.
observed property: pIC50

COc1cc(/C=C(\C#N)C(N)=O)cc(CSc2nc3ccccc3[nH]2)c1O    4.12
COc1cc(/C=C(\C#N)C(N)=O)cc(CSc2ccccc2NC(C)=O)c1O    5.25
COc1cc(/C=C(\C#N)C(=O)c2ccc(O)c(O)c2)cc(CSCc2ccccc2)c1O    6.12

I = N#C/C(=C\c1cc(O)c(O)c(CSCc2ccccc2)c1)C(N)=O
II = COc1cc(/C=C(\C#N)C(N)=O)cc(CSc2ccccc2C(=O)O)c1O
Problem: Which value of pIC50 is numerically greater: that of I or that of II ? Please indicate the selected item by its label.
Solution: I
(I: 6.03, II: 4.43)

----------
experimental target: Epidermal growth factor receptor (Homo sapiens)
Sequence (P00533 whole entry): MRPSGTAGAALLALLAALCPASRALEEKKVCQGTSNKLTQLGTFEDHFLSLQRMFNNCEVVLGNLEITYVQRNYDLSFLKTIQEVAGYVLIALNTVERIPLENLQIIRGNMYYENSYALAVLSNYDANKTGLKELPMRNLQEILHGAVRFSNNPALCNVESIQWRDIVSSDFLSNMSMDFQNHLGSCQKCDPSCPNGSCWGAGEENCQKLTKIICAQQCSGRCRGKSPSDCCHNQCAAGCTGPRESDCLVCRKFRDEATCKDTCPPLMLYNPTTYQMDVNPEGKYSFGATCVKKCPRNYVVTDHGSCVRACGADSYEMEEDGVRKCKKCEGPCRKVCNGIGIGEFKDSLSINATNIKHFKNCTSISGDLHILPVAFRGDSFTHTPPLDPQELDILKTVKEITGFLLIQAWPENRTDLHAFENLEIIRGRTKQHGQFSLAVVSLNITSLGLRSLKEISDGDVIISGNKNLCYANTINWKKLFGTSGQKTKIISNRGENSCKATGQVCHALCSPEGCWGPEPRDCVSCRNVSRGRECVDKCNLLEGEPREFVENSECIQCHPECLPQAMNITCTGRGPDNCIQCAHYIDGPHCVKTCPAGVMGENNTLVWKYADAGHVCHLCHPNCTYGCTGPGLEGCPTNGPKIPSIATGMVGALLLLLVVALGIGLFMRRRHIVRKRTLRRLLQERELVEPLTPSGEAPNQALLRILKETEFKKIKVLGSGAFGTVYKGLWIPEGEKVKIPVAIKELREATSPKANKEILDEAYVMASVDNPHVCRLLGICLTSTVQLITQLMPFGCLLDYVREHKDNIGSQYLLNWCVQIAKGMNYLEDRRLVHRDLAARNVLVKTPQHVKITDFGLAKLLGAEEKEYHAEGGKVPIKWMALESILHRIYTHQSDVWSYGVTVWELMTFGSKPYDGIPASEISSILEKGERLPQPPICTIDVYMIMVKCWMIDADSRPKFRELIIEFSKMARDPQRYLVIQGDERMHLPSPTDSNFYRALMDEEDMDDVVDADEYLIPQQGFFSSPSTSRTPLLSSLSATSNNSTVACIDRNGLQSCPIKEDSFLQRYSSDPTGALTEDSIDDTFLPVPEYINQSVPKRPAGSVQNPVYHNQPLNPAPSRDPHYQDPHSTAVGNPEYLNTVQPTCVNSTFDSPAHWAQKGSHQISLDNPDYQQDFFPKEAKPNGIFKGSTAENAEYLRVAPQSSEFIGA
method description: Inhibitory concentration against EGF receptor by polyGAT phosphorylation
pIC50: −log10 of the molar value.
observed property: pIC50

Worked examples, 6 molecules total:
COc1cc(/C=C(\C#N)C(N)=O)cc(CSCc2ccc(Cl)cc2)c1O    4.83
COc1cc(C=C(C#N)C#N)cc(CSc2ccccc2)c1O    3.43
COc1cc(/C=C(\C#N)C(N)=O)cc(CSc2ccccn2)c1O    4.60
COc1cc(/C=C(\C#N)C(N)=O)cc(CSCc2ccccc2Cl)c1O    5.60
COc1cc(/C=C(\C#N)C(N)=O)cc(CSc2ccc3ccccc3c2)c1O    5.18
COc1cc(/C=C(\C#N)C(N)=O)cc(CSCc2ccccc2)c1O    5.71

A = COc1cc(C=C(C#N)C#N)cc(CS(=O)(=O)c2ccc(C)cc2)c1O
B = COc1cc(/C=C(\C#N)C(N)=O)cc(CSc2nc3ccccc3o2)c1O
Problem: Which value of pIC50 is numerically greater: that of A or that of B ? Please indicate the selected item by its label.
Solution: B
(B: 4.90, A: 4.07)
